System: RARa:RXR (NR concentration 270 nM, RXRa partner concentration 90 nM)
Test: PBM binding z-score (relative to random genomic background probes); higher = stronger binding; sequences stand for … in GC…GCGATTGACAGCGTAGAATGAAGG
reportedEndpoint: PBM binding z-score

Below are worked cases with known answers.
CGAACTAGGTCAGAACAGGGCAGTGAAGGATGAT
0.81
TCTCGGAAGACACGAAGGTCAGAGCTTTCCAGAG
1.53
TAGCCTAGGTCATTCAGGGCCCAGTATAGAAAGC
2.32

query: Look up and state reported PBM binding z-score for `ACTATTAGTTGAGACGAGGGCAATCGATAGGTTG`
result: 1.25

query: Look up and state reported PBM binding z-score for `GGAACGAGGACAAAGTTGATAGCATCTGTCGACG`
result: 0.0802

query: Look up and state reported PBM binding z-score for `ATCTATAGGTAACAAGTTCAGTGAAAGAGAGGAC`
result: 1.74
